// pKi lookup, one value per entry
- Measurement Protocol: Displacement of [3H]-DTG from Sigma2 receptor in Dunkin Hartley guinea pig brain membrane after 120 mins by liquid scintillation counting analysis in presence of sigma1 blocker (+)-SKF-10047
- Set-up: species or system Cavia porcellus
Units for pKi: none; it is -log10 of a concentration expressed in mol/L.

Cc1ccc(-n2nc(OCCCN3CCCCC3)ccc2=O)cc1
5.89
CC1CCN(CCCOc2ccc(=O)n(-c3ccc(F)c(F)c3)n2)CC1
5.77
CC1CCN(CCCOc2ccc(=O)n(-c3ccc(Cl)c(Cl)c3)n2)CC1
5.76
CC1CCN(CCCOc2ccc(=O)n(-c3ccc(F)cc3)n2)CC1
5.79
O=c1ccc(OCCCCN2CCCCC2)nn1-c1ccccc1
5.76

q: Record request: pKi value, item "CC(C)N(CCCOc1ccc(=O)n(-c2ccccc2)n1)C(C)C"
a: 5.95

q: If you can, please state the reported pKi value of "O=c1ccc(OCCCN2CCCCC2)nn1-c1ccccc1" .
a: 5.97

q: Recorded pKi of "CC1CCN(CCCOc2ccc(=O)n(-c3ccc4ccccc4c3)n2)CC1" , please.
a: 6.04

---

- Measurement Protocol: Displacement of [3H]-DTG from Sigma2 receptor in Dunkin Hartley guinea pig brain membrane after 120 mins by liquid scintillation counting analysis in presence of sigma1 blocker (+)-SKF-10047
- Parameters: species or system Cavia porcellus
pKi: −log10 of the molar value.
Assign rule met whenever pKi does not fall below 6; assign rule not met whenever it does.

q: # bool: pKi of "CN1CCN(CCCOc2ccc(=O)n(-c3ccccc3)n2)CC1" >= 6
a: rule met

q: Determine whether this molecule has pKi no lower than 6: "O=c1ccc(OCCCN2CCCCC2)nn1-c1ccc(F)c(Cl)c1"
a: rule not met

q: Could you verify whether the entry "O=c1ccc(OCCCN2CCCCC2)nn1-c1cccc(Cl)c1Cl" shows pKi of no less than 6?
a: rule not met

q: Reported pKi reaches at least 6 for "O=c1ccc(OCCCN2CCCCC2)nn1-c1ccc(F)cc1" ?
a: rule not met

q: Does "CCN1CCN(CCCOc2ccc(=O)n(-c3ccccc3)n2)CC1" have a reported pKi of at least 6?
a: rule met

q: Decide: pKi of "O=c1ccc(OCCCN2CCCCC2)nn1-c1ccc(Cl)c(Cl)c1" >= 6?
a: rule not met

---

- Tgt: Voltage-gated inwardly rectifying potassium channel KCNH2 (Homo sapiens, UniProt Q12809)
- Sequence (Q12809 whole entry): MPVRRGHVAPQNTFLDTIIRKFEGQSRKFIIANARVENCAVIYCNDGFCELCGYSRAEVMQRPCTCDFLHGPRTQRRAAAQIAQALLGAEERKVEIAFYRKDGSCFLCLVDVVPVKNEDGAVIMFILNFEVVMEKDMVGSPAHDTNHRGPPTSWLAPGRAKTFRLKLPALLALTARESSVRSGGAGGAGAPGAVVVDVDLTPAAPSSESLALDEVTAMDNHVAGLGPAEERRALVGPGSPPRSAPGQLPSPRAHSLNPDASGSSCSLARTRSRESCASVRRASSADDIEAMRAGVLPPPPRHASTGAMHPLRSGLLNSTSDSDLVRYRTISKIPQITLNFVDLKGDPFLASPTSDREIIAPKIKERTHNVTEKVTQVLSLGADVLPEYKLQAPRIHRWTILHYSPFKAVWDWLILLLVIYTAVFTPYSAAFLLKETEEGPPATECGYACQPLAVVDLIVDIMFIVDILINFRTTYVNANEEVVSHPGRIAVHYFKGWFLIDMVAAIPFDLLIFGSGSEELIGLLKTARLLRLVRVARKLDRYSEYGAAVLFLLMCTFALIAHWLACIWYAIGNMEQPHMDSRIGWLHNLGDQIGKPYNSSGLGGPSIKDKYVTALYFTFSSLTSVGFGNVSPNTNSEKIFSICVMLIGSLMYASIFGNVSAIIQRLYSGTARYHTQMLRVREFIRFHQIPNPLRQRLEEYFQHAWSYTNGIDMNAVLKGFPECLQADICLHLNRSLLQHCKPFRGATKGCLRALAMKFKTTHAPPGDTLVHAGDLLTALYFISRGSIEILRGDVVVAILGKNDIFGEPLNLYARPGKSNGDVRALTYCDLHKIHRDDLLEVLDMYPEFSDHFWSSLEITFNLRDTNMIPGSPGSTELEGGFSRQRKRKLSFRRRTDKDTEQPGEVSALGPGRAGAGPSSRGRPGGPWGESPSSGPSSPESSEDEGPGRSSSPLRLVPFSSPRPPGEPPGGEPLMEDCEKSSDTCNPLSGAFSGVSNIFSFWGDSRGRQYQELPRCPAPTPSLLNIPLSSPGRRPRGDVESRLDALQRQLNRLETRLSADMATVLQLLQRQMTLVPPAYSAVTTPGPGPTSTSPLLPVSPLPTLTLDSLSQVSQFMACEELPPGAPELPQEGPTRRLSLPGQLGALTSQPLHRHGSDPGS
- Measurement Protocol: Inhibition of human ERG expressed in HEK293 cells assessed as tail current at -50 mV holding potential by whole-cell patch clamp method
Metric: IC50 (µM)
Write the answer as a number in µM, unit excluded.

The cases that follow already have their IC50 on record.
CC1CCN(CCCOc2ccc(=O)n(-c3ccc(Cl)c(Cl)c3)n2)CC1
1.46
O=c1ccc(OCCCN2CCCCC2)nn1-c1ccc(F)c(Cl)c1
0.98
O=c1ccc(OCCCN2CCCCC2)nn1-c1ccc(Cl)cc1
1.45
CC1CCN(CCCOc2ccc(=O)n(-c3ccc(F)c(F)c3)n2)CC1
2.68

Let us examine a further case.
q: Can you look up the measured IC50 of "CC1CCN(CCCOc2ccc(=O)n(-c3ccc(F)c(Cl)c3)n2)CC1" for me?
a: 2.16

---

- Organism: Cavia porcellus
- Measurement Protocol: Selectivity ratio of Ki for Sigma2 receptor in Dunkin Hartley guinea pig brain membrane to Ki for Sigma1 receptor in Dunkin Hartley guinea pig brain membrane
Ratio Ki values for the compounds below.
Answer with a number only.

Some solved cases for reference:
CC1CC(C)CN(CCCCOc2ccc(=O)n(-c3ccccc3)n2)C1 (stereo not drawn)
6.2
O=c1ccc(OCCCCN2CCCCC2)nn1-c1ccccc1
13.9
Cc1c(OCCCN2CCCCC2)nn(-c2ccc(Cl)c(Cl)c2)c(=O)c1C
21.4
CC1CCN(CCCOc2ccc(=O)n(-c3ccc(F)c(F)c3)n2)CC1
113

q: Please report the recorded Ratio Ki for CC1CC(C)CN(CCCOc2ccc(=O)n(-c3ccccc3)n2)C1 (stereo not drawn) .
a: 39.6

q: Fill in the blank: the reported Ratio Ki of "O=c1ccc(OCCCN2CCCCC2)nn1-c1cc(Cl)cc(Cl)c1" is ____.
a: 43.3

q: Entry "O=c1ccc(OCCCN2CCCCC2)nn1-c1cc(Cl)ccc1Cl" : reported Ratio Ki = ?
a: 20

q: Look at this compound and give its reported Ratio Ki. "CCN1CCN(CCCOc2ccc(=O)n(-c3ccccc3)n2)CC1"
a: 15.5

q: Dear colleague, I am looking for the recorded Ratio Ki of the following compound: "Cc1ccc(-n2nc(OCCCN3CCC(C)CC3)ccc2=O)cc1"
a: 25.1

q: So what's the measured Ratio Ki for this one? "O=c1ccc(OCCCN2CCOCC2)nn1-c1ccccc1"
a: 7.6

q: // returns reported Ratio Ki for input "O=c1ccc(OCCCN2CCCCC2)nn1-c1ccc2ccccc2c1"
a: 12.1

q: What value of measured Ratio Ki is listed for "O=c1ccc(OCCCN2CCCCC2)nn1-c1ccc(F)c(Cl)c1" ?
a: 158

q: What measured Ratio Ki goes with "CC1CCN(CCCOc2ccc(=O)n(-c3cc(Cl)ccc3Cl)n2)CC1" ?
a: 14.5

q: Recorded Ratio Ki of "CC1CCN(CCCOc2ccc(=O)n(-c3ccccc3)n2)CC1" , please.
a: 52.3

q: // lookup Ratio Ki for "CCN(CC)CCCOc1ccc(=O)n(-c2ccccc2)n1"
a: 12.1

q: What does the data say about its Ratio Ki? Entry: "CC1CCN(CCCOc2ccc(=O)n(-c3cc(Cl)cc(Cl)c3)n2)CC1"
a: 30.7

q: Consider the compound "CC1CCN(CCCCOc2ccc(=O)n(-c3ccccc3)n2)CC1" and give its measured Ratio Ki.
a: 10.1

q: Please look up its Ratio Ki: "CN(C)CCCOc1ccc(=O)n(-c2ccccc2)n1"
a: 7.57

---

- Measurement Protocol: Displacement of [3H]-DTG from Sigma2 receptor in Dunkin Hartley guinea pig brain membrane after 120 mins by liquid scintillation counting analysis in presence of sigma1 blocker (+)-SKF-10047
- Design: species or system Cavia porcellus
pKi: −log10 of the molar value.
Label Criterion not met if pKi falls below 6; label Criterion met in every other case.

Reference set (6 entries):
O=C1CCN(CCCOc2ccc(=O)n(-c3ccccc3)n2)CC1
Criterion not met
CC1CC(C)CN(CCCOc2ccc(=O)n(-c3ccccc3)n2)C1 (stereo unspecified)
Criterion not met
CN1CCCN(CCCOc2ccc(=O)n(-c3ccccc3)n2)CC1
Criterion met
Cc1cc(OCCN2CCOCC2)nn1-c1ccc2ccccc2c1
Criterion not met
Cc1ccc(-n2nc(OCCCN3CCC(C)CC3)ccc2=O)cc1
Criterion not met
CC1CCN(CCCOc2ccc(=O)n(-c3ccc(F)c(Cl)c3)n2)CC1
Criterion not met

q: Dear colleague, could you confirm whether "O=c1ccc(OCCCN2CCOCC2)nn1-c1ccccc1" has pKi at or above 6?
a: Criterion met

q: Please indicate if the recorded pKi for "O=c1ccc(OCCCN2CCCCC2)nn1C1CCCC1" meets or exceeds 6.
a: Criterion not met

---

- Measurement Protocol: Displacement of [3H]-DTG from Sigma2 receptor in Dunkin Hartley guinea pig brain membrane after 120 mins by liquid scintillation counting analysis in presence of sigma1 blocker (+)-SKF-10047
- Design: species or system Cavia porcellus
Metric: Ki (nM)
Supply the numeric figure in nM, leaving out any unit text.

Example results:
CC1CCN(CCCOc2ccc(=O)n(-c3cccc(Cl)c3Cl)n2)CC1
1200
CN(C)CCCOc1ccc(=O)n(-c2ccccc2)n1
818
CC1CCN(CCCCOc2ccc(=O)n(-c3ccccc3)n2)CC1
1440

q: Recorded Ki for "O=c1ccc(OCCCN2CCCCC2)nn1-c1ccc2ccccc2c1" , please?
a: 895

q: Query (molecule): "O=c1c2c(c(OCCCN3CCCCC3)nn1-c1ccc(Cl)c(Cl)c1)CCCC2" ; field requested: Ki
a: 934

---

Ki values, listed per item
- Measurement Protocol: Displacement of [3H]-DTG from Sigma2 receptor in Dunkin Hartley guinea pig brain membrane after 120 mins by liquid scintillation counting analysis in presence of sigma1 blocker (+)-SKF-10047
- Parameters: species or system Cavia porcellus
Your answer is read as nM, so omit the unit and give the number.

q: Ki lookup needed for "CC1CCN(CCCOc2ccc(=O)n(-c3cc(Cl)cc(Cl)c3)n2)CC1" , thanks.
a: 1320

---

- Measurement Protocol: Displacement of [3H]-DTG from Sigma2 receptor in Dunkin Hartley guinea pig brain membrane after 120 mins by liquid scintillation counting analysis in presence of sigma1 blocker (+)-SKF-10047
- Set-up: species or system Cavia porcellus
Metric: Ki

q: For the compound "CCN(CC)CCCOc1ccc(=O)n(-c2ccccc2)n1" , what Ki is on record?
a: 1170 nM

---

- Measurement Protocol: Displacement of [3H]-DTG from Sigma2 receptor in Dunkin Hartley guinea pig brain membrane after 120 mins by liquid scintillation counting analysis in presence of sigma1 blocker (+)-SKF-10047
- Design: species or system Cavia porcellus
Metric: Ki (µM)
Reply numerically in µM, unit not repeated.

Answered examples (5):
CC1CCN(CCCOc2ccc(=O)n(-c3ccccc3)n2)CC1
1.46
O=c1c2ccccc2c(OCCCN2CCCCC2)nn1-c1ccc(Cl)c(Cl)c1
1.51
CC1CC(C)CN(CCCCOc2ccc(=O)n(-c3ccccc3)n2)C1 (stereo unspecified)
1.37
O=c1ccc(OCCCN2CCCCC2)nn1-c1cc(Cl)cc(Cl)c1
1.3
Cc1c(OCCCN2CCCCC2)nn(-c2ccc(Cl)c(Cl)c2)c(=O)c1C
1.43

q: For "CC1CCN(CCCOc2ccc(=O)n(-c3cc(Cl)ccc3Cl)n2)CC1" , what is its reported Ki?
a: 0.87

Entry source: ChEMBL document CHEMBL3804799
